Biological target: T1, DLG3_1, Q92796
T1 sequence (Q92796 125-227, limits assumed, looked up): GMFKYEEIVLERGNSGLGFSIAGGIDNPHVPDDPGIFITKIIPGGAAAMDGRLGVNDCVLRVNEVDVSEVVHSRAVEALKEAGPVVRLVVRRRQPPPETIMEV
Assay: holdup assay
Set-up: key: below the threshold = too weak to quantify, mostly under pKd 3.1 to 4
Conditions: plain residues with an end cap or a label only (N-terminal biotin on a linker: ado-ado)
readout-type: pKd

GEDRSPPTAL [MKNK1, Q9BUB5]; below the threshold
DRIQSCLSDA [SBF1, O95248]; below the threshold
DGVNEKVSCV [HTR2A, P28223]; below the threshold
